read-out: Macrophage colony-stimulating factor (MCSF), CSF1 (gene 1435); assay: BSK_LPS_MCSF: BioMAP Diversity Plus: LPS Assay for Macrophage colony-stimulating factor (MCSF) Biomarker Activity (AID 2283083); details: primary human HUVEC with PBMC; actives raise or lower the signal
Calls of active or inactive are those of the source. Rule for the calls: active = hit-call score of the fitted dose curve at least 0.9, where 1 is the maximum; inactive = score below 0.9.
Outcome field: choose from true (1) = active, false (0) = inactive

Worked examples follow.
Molecule: CC(C)(C)OOC(=O)c1ccccc1
Classification: false (0)
//
Molecule: Nc1ccc(Cl)cc1N
Classification: true (1)
//
Molecule: Nc1ccc(N=Nc2ccccc2)cc1
Classification: false (0)

Test call for this molecule, please: CCCCOC(=O)c1ccccc1C(=O)OCc1ccccc1
false (0)

Test call for this molecule, please: CN(C)c1ccccc1
false (0)

Test call for this molecule, please: N#CC(Br)(Br)C(N)=O
false (0)

Source of measurements: PubChem BioAssay (EPA / NIEHS)
